Test system: MALME-3M melanoma
Assay Name: NCI tumour cell line growth inhibition, 48 h
List of TGI values.
Entry rule: numbers only, all in µM.

> print(dat)
                              smiles.string  observed.value
1         Oc1[nH]c2ccccc2c1N=NC(=S)N1CCCCC1             2.2
2  CC(C)(N)CO[C@H]1C[C@H]2CC[C@@]1(C)C2(C)C            33.6
3  Cc1oc2nc[nH]c(=O)c2c1C(=O)/C=C/c1ccc(Cl)cc1            8.29

COc1cccc(C(=O)Nc2ccc(CN3CCc4nc5cc(OC)c(OC)cc5cc43)cc2)c1 yielded TGI of 27.6

NCC[Se][Se]CCN yielded TGI of 25.2

Cc1cc(Cc2cc(C)c(O)c(C)c2)cc(C)c1O yielded TGI of 59.2

Cc1csc(/C=N/NC(=O)c2nnn(-c3ccnc4c(C(F)(F)F)cccc34)c2C)c1 yielded TGI of 92.2

CC1=CC[C@@H]2C(C)(C)C(=O)CC[C@@]2(C)[C@@H]1COc1ccc2ccc(=O)oc2c1 yielded TGI of 38.9

COc1cc(=O)oc(/C=C/C=O)c1C yielded TGI of 39.4

----------
List of TGI values.
Tested on: MALME-3M melanoma
Assay Name: NCI tumour cell line growth inhibition, 48 h
Entry rule: numbers only, all in µM.

Compound	Unit Of Measurement	Observed Value
COc1cc2c(c(OC)c1OC)C(=O)CC(c1cccc(NC(=O)c3ccc(Br)cc3)c1)O2 (stereo not given)	µM	7.39

O=C1NCN(c2ccccc2)C12CCN(CCc1ccc3[nH]c(=S)[nH]c3c1)CC2 yielded TGI of 30.8

O=C(/C=C1\C(=O)N(Cc2ccc([N+](=O)[O-])cc2)c2ccccc21)c1ccc(OCCN2CCCCC2)cc1 yielded TGI of 2.74

O=c1cc(CO)n(CCc2c[nH]c3ccccc23)cc1O yielded TGI of 57.5

----------
System: SF-539 CNS
Assay Name: NCI tumour cell line growth inhibition, 48 h
Readout Label: GI50

Here are 4 compounds together with their reported answers.
> print(dat)
                                   compound  target.under.test  readout.label  observed.value
1  O=C(CCCn1c(=O)c2sc3ccccc3c2n2nnc(-c3ccccc3)c12)NCCc1cnc[nH]1         SF-539 CNS           GI50          664 nM
2  COc1cc(-c2nn(-c3ccc(NC(=O)Nc4ccc(Cl)c(Cl)c4)cc3)cc2-c2ccncc2)ccc1Cl         SF-539 CNS           GI50         2890 nM
3  COc1cccc(C(=O)Nc2ccc(CN3CCc4nc5cc(OC)c(OC)cc5cc43)cc2)c1         SF-539 CNS           GI50         5510 nM
4  Oc1c(C(Nc2cccc3ccccc23)c2ccccc2)ccc2cccnc12 (stereo not given)         SF-539 CNS           GI50         4560 nM

--- query ---
CCN(CC)C(=O)CC1=C(C)/C(=C/c2[nH]c(-c3ccc[nH]3)cc2OC)N=C1C yielded GI50 of 498 nM

----------
Tested on: SR leukemia
Assay Name: NCI tumour cell line growth inhibition, 48 h
List of TGI values.

Here are 8 compounds together with their reported answers.
> print(dat)
                                   compound  readout.label  observed.value
1                            NCC[Se][Se]CCN            TGI        > 100 µM
2  FC(F)(F)c1nc2ccc(SSc3ccc4nc(C(F)(F)F)[nH]c4c3)cc2[nH]1            TGI        > 100 µM
3  C=C1C(=O)O[C@H]2[C@H]1CC/C(Cn1cc(CNCCc3c[nH]c4ccc(Cl)cc34)nn1)=C\CC[C@@]1(C)O[C@@H]21            TGI         9.66 µM
4  [C-]#[O+].[Cl][Sn]([Cl])[Cl].[Cl][Sn]([Cl])[Cl].[Pt].c1ccc([PH+](c2ccccc2)c2ccccc2)cc1.c1ccc([PH+](c2ccccc2)c2ccccc2)cc1            TGI        > 100 µM
5  C=CCn1c(=O)c2cnc(Nc3ccc(N4CCN(C)CC4)cc3)nc2n1-c1ccc2c(n1)[C@@](O)(CC)CC2            TGI         1.38 µM
6                  N#Cc1nc(CSCc2ccccc2)oc1N            TGI        > 100 µM
7  C=C(C)[C@@H]1CC[C@]2(C)CC[C@]3(C)[C@H](CC[C@@H]4[C@@]5(C)CC[C@H](OC(=O)c6ccccc6)C(C)(C)[C@@H]5CC[C@]43C)[C@@H]12            TGI        > 100 µM
8  CCCCC1Cc2ccccc2-c2n1c1ccccc1[n+]2C (centres undefined)            TGI         58.5 µM

--- query ---
O=C(CC(=O)c1ccc([N+](=O)[O-])cc1)C(=O)Nc1nccs1 yielded TGI of > 100 µM

----------
Tested on: MCF7 breast
Assay Name: NCI tumour cell line growth inhibition, 48 h
List of TGI values.

Here are 3 compounds together with their reported answers.
> print(dat)
                                   compound  target.under.test  observed.value
1  C[n+]1noc(/N=N\[O-])c1-c1cc(-c2c(/N=N\[O-])on[n+]2C)cc(-c2c(/N=N/[O-])on[n+]2C)c1        MCF7 breast        > 100 µM
2  C[C@@]12c3c4ccc(C=O)c3Oc3ccc(C=O)c(c31)Oc1c(C=O)ccc(c12)O4        MCF7 breast        > 100 µM
3  CN(CCC#N)c1ccc(/C=C(\C#N)c2cccc(C(F)(F)F)c2)cc1        MCF7 breast        > 100 µM

CN(C)/C(N)=N/C(N)=Nc1cccc(Cl)c1 yielded TGI of > 100 µM

Cc1ccc(N/C(Sc2ccccc2)=C(/C(Cl)=C(Cl)Cl)[N+](=O)[O-])c(C)c1 yielded TGI of 28 µM

CSc1ccccc1P(c1ccccc1SC)c1ccccc1SC yielded TGI of > 100 µM

CCOC(=O)C1=C(C)NC2SC(=O)/C(=C\c3ccccc3Cl)N2C1c1ccccc1 (stereo not given) yielded TGI of > 100 µM

CN1CCN(CCCOc2cccc3nc(Nc4ccc(Cl)c(F)c4)ccc23)CC1 yielded TGI of 2.77 µM

C[C@]12CCC3c4ccc(O)cc4CC[C@H]3C1CC(=O)N(N)C2=O (stereo not given in full) yielded TGI of > 100 µM

CC(=O)NC1=C(C)C(=O)c2c(nc3n2CCC3OC(=O)c2ccccc2)C1=N (stereo not given) yielded TGI of 2.53 µM

----------
System: OVCAR-5 ovarian
Assay Name: NCI tumour cell line growth inhibition, 48 h
Readout Label: TGI

CC1(C)OCC2(CO1)CSCCCSCC1(COC(C)(C)OC1)CSCCCSC2 yielded TGI of > 100 µM

N=Nc1c(OC(=O)Nc2ccccc2)[nH]c2ccccc12 yielded TGI of > 100 µM

Cc1cc(C)nc(NS(=O)(=O)c2ccc(NN=c3c4ccccc4n(C)c4ccccc34)cc2)n1 yielded TGI of > 100 µM

CN(CCC#N)c1ccc(/C=C(\C#N)c2cccc(C(F)(F)F)c2)cc1 yielded TGI of > 100 µM

C=CCn1c(=O)c2cnc(Nc3ccc(N4CCN(C)CC4)cc3)nc2n1-c1ccc2c(n1)[C@@](O)(CC)CC2 yielded TGI of 19.5 µM

COc1ccc(-c2cnoc2-c2ccc(OC)c(OC)c2)cc1OC yielded TGI of 36 µM

O=c1[nH]c(=O)n(C2CC(O)C(CO)O2)cc1OCCc1ccccc1 (stereo unspecified) yielded TGI of > 100 µM

CNC(=O)CCNC(=O)CCC(=O)N(C)C yielded TGI of > 100 µM

N#CC(C#N)=Cc1c(-c2ccccc2)[nH]c2ccccc12 yielded TGI of > 100 µM

COc1cc(/C=N/Nc2ncnc3c2cnn3C(C)C)ccc1O yielded TGI of > 25 µM

N#CNC(N)=NCCO yielded TGI of > 100 µM

----------
System: OVCAR-3 ovarian
Assay Name: NCI tumour cell line growth inhibition, 48 h
List of TGI values.

Here are 5 compounds together with their reported answers.
> print(dat)
                                   compound  readout.label  observed.value
1  COC(=O)C1CC(=O)CCC1c1ccccc1 (stereo unspecified)            TGI        > 100 µM
2  O=C1CSC(/C=C/c2ccccc2)N1c1ccc(-c2ccc(-n3c(-c4ccccc4)nc4ccccc4c3=O)cc2)cc1 (stereo unspecified)            TGI         84.6 µM
3              Cc1cc(=O)n(-c2ccccc2)c(=O)o1            TGI        > 100 µM
4  Cc1oc2nc[nH]c(=O)c2c1C(=O)/C=C/c1ccc(Cl)cc1            TGI         7.83 µM
5  CC(C)N(C(=O)C12C3C4C5C3C1(C(=O)N(C(C)C)C(C)C)C5(C#N)C42)C(C)C (stereo unspecified)            TGI        > 100 µM

Measured on OVCAR-3 ovarian, O=S1(=O)NNC(=NCc2ccc(Cl)c(Cl)c2)c2ccccc21 has a documented TGI of > 100 µM

From: PubChem BioAssay (NCI)
